- Assay target: T1, mECD: full-length extracellular region of mouse MuSK (E22 to T494) with C-terminal Avi- and His6-tags (mouse, UniProt Q61006 22-494, biotinylated in vitro using the BirA enzyme)
- T1 construct: range 22-494; also called mouse ECD; not shown: Avi- and His6-tags
- T1 sequence (looked up): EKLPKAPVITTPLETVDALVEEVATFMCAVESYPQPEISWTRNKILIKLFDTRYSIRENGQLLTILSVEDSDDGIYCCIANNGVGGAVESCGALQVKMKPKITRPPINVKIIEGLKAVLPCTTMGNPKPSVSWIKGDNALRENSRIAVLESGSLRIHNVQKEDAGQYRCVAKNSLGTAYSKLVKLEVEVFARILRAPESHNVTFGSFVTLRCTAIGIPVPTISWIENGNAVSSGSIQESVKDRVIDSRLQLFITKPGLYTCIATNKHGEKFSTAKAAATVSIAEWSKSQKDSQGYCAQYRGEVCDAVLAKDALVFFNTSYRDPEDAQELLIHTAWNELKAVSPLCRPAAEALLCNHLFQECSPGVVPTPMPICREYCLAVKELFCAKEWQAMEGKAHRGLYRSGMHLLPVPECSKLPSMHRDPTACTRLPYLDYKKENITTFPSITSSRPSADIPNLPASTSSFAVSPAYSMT
- Experiment summary: bead-binding assay, IgG format: biotinylated antigen on streptavidin beads, flow cytometry, 1:1 fit; average ± s.d., n=3
The label label 1 is reserved for Kd strictly under 0.3 nM; label 0 covers values equal to or above it.

Field: below-cutoff. Rule: recorded Kd strictly less than 0.3 nM. Subject: hIgG1-X3 (antibody, V domains shown, human IgG1 Fc containing LALA mutations; also called X3 in human IgG1 format) VH: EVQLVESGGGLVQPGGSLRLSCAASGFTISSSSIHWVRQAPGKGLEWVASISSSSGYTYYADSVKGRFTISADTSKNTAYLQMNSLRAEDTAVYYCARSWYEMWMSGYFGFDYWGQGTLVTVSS VL: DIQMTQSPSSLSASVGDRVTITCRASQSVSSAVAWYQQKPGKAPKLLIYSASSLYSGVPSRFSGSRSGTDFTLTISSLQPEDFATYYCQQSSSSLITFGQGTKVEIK
label 1

---
Lab note: Kd threshold 0.3 nM. Does this binder come in strictly under it? mIgG2a-X3 (antibody, V domains shown, mouse IgG2a format; also called X3 in mouse IgG2a format) VH: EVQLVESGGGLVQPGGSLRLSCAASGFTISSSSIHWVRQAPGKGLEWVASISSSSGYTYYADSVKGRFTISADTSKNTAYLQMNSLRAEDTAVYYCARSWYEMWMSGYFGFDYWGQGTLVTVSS VL: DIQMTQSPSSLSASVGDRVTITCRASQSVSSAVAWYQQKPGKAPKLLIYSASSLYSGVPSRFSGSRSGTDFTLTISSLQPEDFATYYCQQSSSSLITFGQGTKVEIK
label 1

Given mIgG2a-X17 (antibody, V domains shown, chimeric antibody of a human Fab (human CH1) and mouse IgG2a Fc with the LALAPG mutations; also called X17-mIgG2a-LALAPG; antibody X17) VH: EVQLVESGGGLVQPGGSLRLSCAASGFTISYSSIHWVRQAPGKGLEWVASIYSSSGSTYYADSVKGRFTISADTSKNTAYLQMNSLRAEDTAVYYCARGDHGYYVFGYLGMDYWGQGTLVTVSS VL: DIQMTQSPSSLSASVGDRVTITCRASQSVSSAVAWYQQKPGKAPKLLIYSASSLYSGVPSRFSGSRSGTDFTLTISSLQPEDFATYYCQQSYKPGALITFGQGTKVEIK , is recorded Kd strictly lower than 0.3 nM?
label 0

Is Kd of hIgG1-X17 (antibody, V domains shown, human IgG1 Fc containing LALA mutations; also called hIgG-X17; X17 in human IgG1 format) VH: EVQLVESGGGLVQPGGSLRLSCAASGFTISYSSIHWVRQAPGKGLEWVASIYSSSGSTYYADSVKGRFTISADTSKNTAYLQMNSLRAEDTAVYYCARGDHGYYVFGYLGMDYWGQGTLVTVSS VL: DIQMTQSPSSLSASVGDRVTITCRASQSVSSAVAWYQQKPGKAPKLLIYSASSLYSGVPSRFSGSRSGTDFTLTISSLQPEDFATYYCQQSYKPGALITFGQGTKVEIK strictly below 0.3 nM?
label 0

Value source: patent US20230151091A1
